- PROTOCOL SUMMARY: clinical
- STUDY CONDITIONS: human, plasma, po, 400 mg
OBSERVED PROPERTY: concentration at 3 h (ng/mL)

Cc1ccc(NC(=O)c2ccc(CN3CCN(C)CC3)cc2)cc1Nc1nccc(-c2cccnc2)n1 996

###

- PROTOCOL SUMMARY: clinical
- STUDY CONDITIONS: human, plasma, po, 800 mg
OBSERVED PROPERTY: concentration at 3 h

Cc1ccc(NC(=O)c2ccc(CN3CCN(C)CC3)cc2)cc1Nc1nccc(-c2cccnc2)n1 1730 ng/mL

###

- PROTOCOL SUMMARY: clinical
- STUDY CONDITIONS: human, plasma, po, 600 mg
OBSERVED PROPERTY: concentration at 3 h (ng/mL)

Cc1ccc(NC(=O)c2ccc(CN3CCN(C)CC3)cc2)cc1Nc1nccc(-c2cccnc2)n1 1570
